NEUTROPHIL by entry:
species on record: Rattus norvegicus; experiment: DrugMatrix - Regimen: Daily Repeat; assay type: toxicity, organism-based, Sprague-Dawley; design: regimen Daily Repeat, gender Male, age 6-8 weeks; conditions: in vivo, po, 100 mg/kg, 72 h, tissue Blood, route oral GAVAGE, dose level Low, time 3 day, vehicle .5 % CMC
Report as a plain number; the unit % is understood.

Known results for compounds:
- C#C[C@]1(O)CC[C@H]2[C@@H]3CCC4=Cc5oncc5C[C@]4(C)[C@H]3CC[C@@]21C: 14.33
- CC=Cc1ccc(O)c(OC)c1: 10.67
- CC[C@]1(O)CC[C@H]2[C@@H]3CCC4=CCCC[C@@H]4[C@H]3CC[C@@]21C: 16.13

Value lookup for NEUTROPHIL; key = Nc1nc2c(c(=O)[nH]1)N(C=O)C(CNc1ccc(C(=O)N[C@@H](CCC(=O)O)C(=O)O)cc1)CN2 (some centres undefined)
9.67

###

ALANINE AMINOTRANSFERASE by entry:
organism: Rattus norvegicus; assay: DrugMatrix - Regimen: Daily Repeat; type: toxicity, organism-based, Sprague-Dawley; design: regimen Daily Repeat, gender Male, age 6-8 weeks; conditions: in vivo, po, 0 mg/kg, 120 h, tissue Plasma, route oral GAVAGE, dose level Control, time 5 day, […]
Report as a plain number; the unit u/L is understood.

Known results for compounds:
- CN(CCOc1ccc(CC2SC(=O)NC2=O)cc1)c1ccccn1 (centres undefined): 62
- CC[C@H](C)C(=O)O[C@H]1C[C@@H](C)C=C2C=C[C@H](C)[C@H](CC[C@@H]3C[C@@H](O)CC(=O)O3)[C@H]21: 75.67
- OCCN1CCN(CCCN2c3ccccc3Sc3ccc(C(F)(F)F)cc32)CC1: 54.67
- COc1ncnc(NS(=O)(=O)c2ccc(N)cc2)c1OC: 57.83
- CC(=O)Nc1nnc(S(N)(=O)=O)s1 [ACETAZOLAMIDE]: 57.83
- CCn1cc(C(=O)O)c(=O)c2cc(F)c(N3CCNCC3)nc21: 52.5
- CC(CCc1ccc(O)cc1)NCCc1ccc(O)c(O)c1 (centres undefined): 41.33
- CC(C)Cc1ccc(CC(=O)O)cc1: 55

Below: the item to evaluate.
Value lookup for ALANINE AMINOTRANSFERASE; key = C#C[C@]1(O)CC[C@H]2[C@@H]3CCc4cc(O)ccc4[C@H]3CC[C@@]21C
52.5

###

HEMOGLOBIN by entry:
species on record: Rattus norvegicus; experiment: DrugMatrix - Regimen: Daily Repeat; format: toxicity, organism-based, Sprague-Dawley; design: regimen Daily Repeat, gender Male, age 6-8 weeks; details: in vivo, po, 0 mg/kg, 120 h, tissue Blood, route oral GAVAGE, dose level Control, time 5 day, vehicle 100 % SALINE
Report as a plain number; the unit G/DL is understood.

Known results for compounds:
* Oc1ccccc1O [CATECHOL] | 14
* CC(=O)OCC(CCn1cnc2cnc(N)nc21)COC(C)=O [FAMCICLOVIR] | 13.1
* Cc1cc(CC(=O)O)n(C)c1C(=O)c1ccc(Cl)cc1 [ZOMEPIRAC] | 14

Below: the item to evaluate.
Value lookup for HEMOGLOBIN; key = CCCc1nn(C)c2c(=O)[nH]c(-c3cc(S(=O)(=O)N4CCN(C)CC4)ccc3OCC)nc12
13.1
